# target_desc: PXR (Homo sapiens (Human), UniProt O75469)
# Sequence (O75469 146-433, species assumed): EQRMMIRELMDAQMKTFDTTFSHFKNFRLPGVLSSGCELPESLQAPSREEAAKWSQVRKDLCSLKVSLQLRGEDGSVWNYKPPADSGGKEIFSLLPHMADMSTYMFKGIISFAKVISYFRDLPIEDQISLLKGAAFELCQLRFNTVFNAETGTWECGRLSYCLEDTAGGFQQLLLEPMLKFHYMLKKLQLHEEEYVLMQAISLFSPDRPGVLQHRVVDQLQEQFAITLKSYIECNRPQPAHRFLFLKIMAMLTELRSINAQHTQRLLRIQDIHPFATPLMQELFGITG
# method: Nuclear hormone receptor selectivity assay (GAL4-NHR-LBD luciferase, HEK293)
# condition_set: agonist mode
property: EC50 (µM)

> print(dat)
                                   molecule  readout.number
1  O=C(O)[C@@H]1CC=C(c2nn(C(=O)c3c(Cl)cccc3C3(C(F)(F)F)CC3)c3c2CC[C@@H](C(=O)N2CCC4(COC4)C2)C3)CC1 [Test Compound]             8.2

----------
# target_desc: RARγ (Homo sapiens (Human), UniProt P13631)
# Sequence (P13631 185-419, species assumed): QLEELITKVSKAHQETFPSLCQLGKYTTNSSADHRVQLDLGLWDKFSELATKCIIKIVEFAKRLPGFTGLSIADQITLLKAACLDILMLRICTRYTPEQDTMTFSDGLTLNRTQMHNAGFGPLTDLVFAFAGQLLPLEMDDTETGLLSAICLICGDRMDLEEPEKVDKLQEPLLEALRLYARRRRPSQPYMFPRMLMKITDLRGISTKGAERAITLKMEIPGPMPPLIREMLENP
# method: Nuclear hormone receptor selectivity assay (GAL4-NHR-LBD luciferase, HEK293)
# condition_set: antagonist mode, reference agonist at EC80
pIC50: −log10 of the molar value.
property: pIC50

> print(dat)
                              record.smiles  result
1  O=C(O)[C@@H]1CC=C(c2nn(C(=O)c3c(Cl)cccc3C3(C(F)(F)F)CC3)c3c2CC[C@@H](C(=O)N2CCC4(COC4)C2)C3)CC1  < 5.00
